Measurement target: catalytic domain of human gelatinase-A (MMP-9) (Homo sapiens, UniProt P14780)
Sequence (P14780 107-444 limits assumed): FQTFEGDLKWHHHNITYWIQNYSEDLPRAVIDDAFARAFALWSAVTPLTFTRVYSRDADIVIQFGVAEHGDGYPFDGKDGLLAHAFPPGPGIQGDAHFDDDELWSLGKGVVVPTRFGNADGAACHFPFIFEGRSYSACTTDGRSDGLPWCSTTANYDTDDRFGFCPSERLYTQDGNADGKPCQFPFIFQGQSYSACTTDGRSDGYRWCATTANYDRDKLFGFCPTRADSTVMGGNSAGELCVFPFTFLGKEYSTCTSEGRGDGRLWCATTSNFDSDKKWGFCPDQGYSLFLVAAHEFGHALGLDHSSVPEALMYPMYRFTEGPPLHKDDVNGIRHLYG
Test name: Enzymatic activity of the catalytic domain of human gelatinase-A (MMP-9), fluorogenic substrate
Format: biochemical

Compound	Unit of measurement	IC50
O=C(O)C1C2CCOC2CCN1S(=O)(=O)c1ccc(-c2ccc(Cl)cc2)cc1 (stereo not shown)	nM	2200
O=C(NO)[C@@H]1[C@@H]2CCO[C@@H]2CCN1S(=O)(=O)c1ccc(Oc2ccc(F)cc2)cc1	nM	150
O=C(NO)C1C2CCOC2CCN1S(=O)(=O)c1ccc(Oc2ccc(Cl)cc2)cc1 (stereo not shown)	nM	2
O=C(NO)C1C2CCOC2CCN1S(=O)(=O)c1ccc(Oc2ccc(F)cc2)cc1 (stereo not shown)	nM	3
CS(=O)(=O)c1ccc(Oc2ccc(S(=O)(=O)N3CC[C@@H]4OCC[C@@H]4[C@@H]3C(=O)NO)cc2)cc1	nM	5
N#Cc1ccc(Oc2ccc(S(=O)(=O)N3CC[C@@H]4OCC[C@@H]4[C@@H]3C(=O)NO)cc2)cc1	nM	8
O=C(NO)C1C2CCOC2CCN1S(=O)(=O)c1ccc(-c2ccc(Cl)cc2)cc1 (stereo not shown)	nM	2.4

---

Measurement target: catalytic domain of human stromelysin (MMP-3) (Homo sapiens)
Construct: Preparation and determination of the enzymatic activity of the catalytic domain of human stromelysin (MMP-3); made in house
Sequence (P08254 100-272 limits assumed): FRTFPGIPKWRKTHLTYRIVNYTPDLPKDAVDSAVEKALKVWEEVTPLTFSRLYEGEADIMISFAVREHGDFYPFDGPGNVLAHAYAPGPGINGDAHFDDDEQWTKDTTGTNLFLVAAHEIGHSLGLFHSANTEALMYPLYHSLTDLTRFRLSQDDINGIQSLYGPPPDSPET
Test name: Enzymatic activity of the catalytic domain of human stromelysin (MMP-3), fluorogenic substrate
Format: biochemical
Overview of reported IC50 across a group of compounds:

Compound	Measurement target	Sign	IC50 / nM
O=C(O)C1C2CCOC2CCN1S(=O)(=O)c1ccc(Oc2ccc(F)cc2)cc1 (stereo not shown)	catalytic domain of human stromelysin (MMP-3) (Homo sapiens)	>	10000
O=C(O)C1C2CCOC2CCN1S(=O)(=O)c1ccc(-c2ccc(Cl)cc2)cc1 (stereo not shown)	catalytic domain of human stromelysin (MMP-3) (Homo sapiens)	=	3500
O=C(NO)[C@@H]1[C@@H]2CCO[C@@H]2CCN1S(=O)(=O)c1ccc(Oc2ccc(F)cc2)cc1	catalytic domain of human stromelysin (MMP-3) (Homo sapiens)	=	1500
O=C(NO)C1C2CCOC2CCN1S(=O)(=O)c1ccc(Oc2ccc(F)cc2)cc1 (stereo not shown)	catalytic domain of human stromelysin (MMP-3) (Homo sapiens)	=	34

---

Overview of reported IC50 across a group of molecules:
Measurement target: catalytic domain of human gelatinase-A (MMP-2) (Homo sapiens, UniProt P08253)
Sequence (P08253 110-465 limits assumed): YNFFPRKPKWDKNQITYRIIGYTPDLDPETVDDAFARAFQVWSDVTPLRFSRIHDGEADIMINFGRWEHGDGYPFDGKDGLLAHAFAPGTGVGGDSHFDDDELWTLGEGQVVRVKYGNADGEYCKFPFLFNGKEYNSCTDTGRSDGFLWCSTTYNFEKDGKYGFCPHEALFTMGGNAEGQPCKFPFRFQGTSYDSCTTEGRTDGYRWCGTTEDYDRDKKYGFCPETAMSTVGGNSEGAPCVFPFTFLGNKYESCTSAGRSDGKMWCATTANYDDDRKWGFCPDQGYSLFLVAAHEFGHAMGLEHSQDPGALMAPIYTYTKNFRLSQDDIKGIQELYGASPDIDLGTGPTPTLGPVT
Test name: Enzymatic activity of the catalytic domain of human gelatinase-A (MMP-2), fluorogenic substrate
Type: biochemical
Assay readout: IC50 (nM)

Molecule	Assay readout	Unit of measurement	Obs value
N#Cc1ccc(Oc2ccc(S(=O)(=O)N3CC[C@@H]4OCC[C@@H]4[C@@H]3C(=O)NO)cc2)cc1 [Example 21]	IC50	nM	1
O=C(O)C1C2CCOC2CCN1S(=O)(=O)c1ccc(Oc2ccc(F)cc2)cc1 (stereo not shown) [Example 10]	IC50	nM	440
O=C(NO)C1C2CCOC2CCN1S(=O)(=O)c1ccc(-c2ccc(Cl)cc2)cc1 (stereo not shown) [Example 7]	IC50	nM	1.7
O=C(NO)C1C2CCOC2CCN1S(=O)(=O)c1ccc(Oc2ccc(Cl)cc2)cc1 (stereo not shown) [Example 18]	IC50	nM	2

---

Measurement target: catalytic domain of human collagenase-3 (MMP-13) (Homo sapiens)
Construct: Determination of the Enzymatic Activity of the Catalytic Domain of Human Collagenase-3 (MMP-13); purchased INVITEK, Berlin 30 100 803
Test name: Enzymatic activity of the catalytic domain of human collagenase-3 (MMP-13), fluorogenic substrate
Format: biochemical

Compound	Unit of measurement	IC50
O=C(NO)[C@H]1[C@H]2CCO[C@H]2CCN1S(=O)(=O)c1ccc(-c2ccc(Cl)cc2)cc1	nM	1
N#Cc1ccc(Oc2ccc(S(=O)(=O)N3CC[C@@H]4OCC[C@@H]4[C@@H]3C(=O)NO)cc2)cc1	nM	1
CS(=O)(=O)c1ccc(Oc2ccc(S(=O)(=O)N3CC[C@@H]4OCC[C@@H]4[C@@H]3C(=O)NO)cc2)cc1	nM	1
